Reference source for all entries: patent US20130296363A1

UniProtKB O60674 pKd data
Sequence (O60674 whole entry): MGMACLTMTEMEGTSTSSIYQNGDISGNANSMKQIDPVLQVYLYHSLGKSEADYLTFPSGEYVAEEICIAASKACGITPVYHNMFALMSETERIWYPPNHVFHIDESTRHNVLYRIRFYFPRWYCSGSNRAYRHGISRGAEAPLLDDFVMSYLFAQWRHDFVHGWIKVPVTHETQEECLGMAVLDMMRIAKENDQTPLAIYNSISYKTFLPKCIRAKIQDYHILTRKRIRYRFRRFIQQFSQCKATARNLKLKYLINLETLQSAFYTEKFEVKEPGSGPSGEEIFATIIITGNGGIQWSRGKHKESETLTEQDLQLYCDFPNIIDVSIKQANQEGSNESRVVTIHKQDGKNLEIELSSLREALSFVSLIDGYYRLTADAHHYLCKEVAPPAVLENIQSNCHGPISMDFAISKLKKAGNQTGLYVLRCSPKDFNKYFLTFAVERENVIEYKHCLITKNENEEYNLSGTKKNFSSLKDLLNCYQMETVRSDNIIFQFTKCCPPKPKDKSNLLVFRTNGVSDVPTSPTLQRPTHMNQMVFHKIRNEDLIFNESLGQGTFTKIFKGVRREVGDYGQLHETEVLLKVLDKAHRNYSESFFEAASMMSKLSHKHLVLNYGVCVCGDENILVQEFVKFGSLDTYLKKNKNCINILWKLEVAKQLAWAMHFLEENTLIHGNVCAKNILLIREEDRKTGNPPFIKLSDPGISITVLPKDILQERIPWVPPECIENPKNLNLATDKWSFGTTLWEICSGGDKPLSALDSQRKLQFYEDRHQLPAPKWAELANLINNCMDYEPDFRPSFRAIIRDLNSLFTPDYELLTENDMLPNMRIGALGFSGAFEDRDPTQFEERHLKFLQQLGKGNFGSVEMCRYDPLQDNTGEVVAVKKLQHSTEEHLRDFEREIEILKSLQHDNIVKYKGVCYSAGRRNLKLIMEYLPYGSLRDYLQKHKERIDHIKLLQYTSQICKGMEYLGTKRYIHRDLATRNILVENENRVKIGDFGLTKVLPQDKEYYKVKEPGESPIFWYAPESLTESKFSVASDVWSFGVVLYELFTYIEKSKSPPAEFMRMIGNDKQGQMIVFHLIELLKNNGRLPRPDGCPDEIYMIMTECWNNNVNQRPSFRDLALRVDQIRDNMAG
pKd: −log10 of the molar value.

- COMPOUND: "O=S(=O)(c1ccc(F)cc1)c1cc2ccccc2c(Nc2ncns2)n1 [Example 18]"
  pKd: "≥ 8.30"

Prompt: For the compound [O-][S+](c1ccc(F)cc1)c1cc2ccccc2c(Nc2nccs2)n1 (stereo not drawn) [Example 11] , what pKd is on record?
Response: ≥ 8.30

Prompt: For the compound O=S(=O)(c1ccc(F)cc1)c1cc2ccccc2c(Nc2cc[nH]n2)n1 [Example 14] , what pKd is on record?
Response: ≥ 8.30

Prompt: For the compound O=S(=O)(c1ccc(F)cc1)c1cc2ccccc2c(Nc2nccs2)n1 [Example 17] , what pKd is on record?
Response: ≥ 8.30
